- Subject of test: Histamine H3 receptor (UniProt Q9Y5N1)
- Assay details: Binding assay for human or rat histamine H3 receptor ([3H] R-α-methylhistamine)
- Assay context: [3H] R-α-methylhistamine 3.0 nM; rat brain frontal cortex or recombinant human receptor in CHO cells (not specified which)
Where a name gives a salt, the structure may show the parent alone.
The following molecules are listed with their measured Ki values.
Value expressed in nM; do not type the unit.

# annotated cases, reported Ki shown
[[record]]
molecule = "CCC(=O)NC1CCc2nc(OC3CCN(C4CCC4)CC3)sc2C1 (stereo not shown) [Example 3]"
readout_units = "nM"
obs_value = 26.7

[[record]]
molecule = "O=C(c1ccc(C(F)(F)F)nc1)N1CCc2nc(OC3CCN(C4CCC4)CC3)sc2C1 [Example 25]"
readout_units = "nM"
obs_value = 35.3

[[record]]
molecule = "O=C(C1CCC1)N1CCc2nc(OC3CCN(C4CCC4)CC3)sc2C1.O=C(O)C(O)C(O)C(=O)O [Example 5, tartrate]"
readout_units = "nM"
obs_value = 3.3


We next turn to a different molecule, shown below.
CC(C)N1CCC(Oc2nc3c(s2)CCN(C(=O)C2CC2)CC3)CC1 [Example 34, tartrate] has a reported Ki of 15.6

The reported measurements were obtained from patent US8912179B2.
